# System: Ebolavirus
# Assay protocol: Inhibition of fluorescent dsRNA probe binding to N-terminal His-tagged recombinant Ebola virus VP35 interferon inhibitory domain assessed as normalized intensity for DNA binding at 200 uM pre-incubated for 5 mins before dsRNA addition and measured after 5 mins by ethidium bromide displacement based EMSA method relative to control
# Design: scale not given: the % may be the effect or the level left
Property measured: Activity

Here is how some molecules turned out for Activity.
In: For CNCc1ccco1 , write its Activity.
Out: 110 to 117%

In: For CCOc1ccccc1C(SCC(=O)O)SCC(=O)O , write its Activity.
Out: 92 to 107%

In: For NC(=O)NC(NC(=O)NC(NC(N)=O)c1ccco1)c1ccco1 (stereo unspecified) , write its Activity.
Out: 98.1 to 116%

In: For O=C(OCCCCOC(=O)N1C(=O)c2ccccc2C1=O)N1C(=O)c2ccccc2C1=O , write its Activity.
Out: 46.8 to 78.5%

In: For CCC(=O)NNC(/C=C/c1cccc(O)c1)=C1/S/C(=N\c2ccc(C)cc2[N+](=O)[O-])N=C1C , write its Activity.
Out: 73.8 to 92.7%

Continue with the molecule presented below.
In: For Nc1nnc2nc(CC(=O)c3cccc([N+](=O)[O-])c3)c(CC(=O)c3cccc([N+](=O)[O-])c3)nn12 , write its Activity.
Out: 60.7 to 88.8%
